Hi there, I'd appreciate the recorded MIC for every entry that follows.
- System: Staphylococcus aureus
- ASSAY_EXPLANATION: In vitro minimum inhibitory concentration for antibacterial activity against Staphylococcus aureus B1 (inducibly MLSb-resistant strain encoded by the erm(C) gene)
- Type: functional
Supply the numeric figure in µg/mL, leaving out any unit text.

The compound CC[C@H]1OC(=O)[C@H](C)[C@@H](OC(=O)Cc2ccccn2)[C@H](C)[C@@H](OC2O[C@H](C)C[C@H](N(C)C)[C@H]2O)[C@@](C)(OC)C[C@@H](C)C(=O)[C@H](C)[C@@H](O)[C@]1(C)O (some centres not stated) on Staphylococcus aureus: MIC was 1.56

Measured on Staphylococcus aureus, CC[C@H]1OC(=O)[C@H](C)[C@@H](OC(=O)Cc2cccnc2)[C@H](C)[C@@H](OC2O[C@H](C)C[C@H](N(C)C)[C@H]2O)[C@@](C)(OC)C[C@@H](C)/C(=N\O)[C@H](C)[C@H]2OC(=O)O[C@@]21C (some centres not stated) has a documented MIC of 0.39

Entry CC[C@H]1OC(=O)[C@H](C)[C@@H](OC(=O)Cc2cccnc2)[C@H](C)[C@@H](OC2O[C@H](C)C[C@H](N(C)C)[C@H]2O)[C@@](C)(OC)C[C@@H](C)/C(=N\O)[C@H](C)[C@@H](O)[C@]1(C)O (some centres not stated) under Staphylococcus aureus had MIC of 1.56

Test item CC[C@H]1OC(=O)[C@H](C)[C@@H](OC(=O)Cc2cccnc2)[C@H](C)[C@@H](OC2O[C@H](C)C[C@H](N(C)C)[C@H]2O)[C@@](C)(O)C[C@@H](C)/C(=N\O)[C@H](C)[C@@H](O)[C@]1(C)O (some centres not stated) ; Staphylococcus aureus; reported MIC was 1.56

Lab note: compound CC[C@H]1OC(=O)[C@H](C)[C@@H](OC(=O)Cc2cccnc2)[C@H](C)[C@@H](OC2O[C@H](C)C[C@H](N(C)C)[C@H]2O)[C@@](C)(OC)C[C@@H](C)C(=O)[C@H](C)[C@@H](O)[C@]1(C)O (some centres not stated) tested on Staphylococcus aureus; recorded MIC was 1.56

Tested system Staphylococcus aureus; MIC recorded for "CC[C@H]1OC(=O)[C@H](C)[C@@H](OC(=O)Cc2ccccc2)[C@H](C)[C@@H](O[C@@H]2O[C@H](C)C[C@H](N(C)C)[C@H]2O)[C@@](C)(OC)C[C@@H](C)C(=O)[C@H](C)[C@@H](O)[C@]1(C)O" was 6.25

Note to self: MIC of CC[C@H]1OC(=O)[C@H](C)[C@@H](OC(=O)Cc2ccncc2)[C@H](C)[C@@H](OC2O[C@H](C)C[C@H](N(C)C)[C@H]2O)[C@@](C)(OC)C[C@@H](C)C(=O)[C@H](C)[C@@H](O)[C@]1(C)O (some centres not stated) with Staphylococcus aureus was 1.56
